biological target: OCT2 (Homo sapiens, UniProt O15244); test: Inhibition of model substrate uptake in OCT2-overexpressing HEK293 cells; settings: human, OCT2-overexpressing HEK293 cells, pH 7.4, probe N-ethyllidocaine (2 μM), N-Ethyllidocaine inhibition [%], OCT2; 20 μM inhibitor, 2 μM N-ethyllidocaine, 5 min
Sequence (O15244 whole entry): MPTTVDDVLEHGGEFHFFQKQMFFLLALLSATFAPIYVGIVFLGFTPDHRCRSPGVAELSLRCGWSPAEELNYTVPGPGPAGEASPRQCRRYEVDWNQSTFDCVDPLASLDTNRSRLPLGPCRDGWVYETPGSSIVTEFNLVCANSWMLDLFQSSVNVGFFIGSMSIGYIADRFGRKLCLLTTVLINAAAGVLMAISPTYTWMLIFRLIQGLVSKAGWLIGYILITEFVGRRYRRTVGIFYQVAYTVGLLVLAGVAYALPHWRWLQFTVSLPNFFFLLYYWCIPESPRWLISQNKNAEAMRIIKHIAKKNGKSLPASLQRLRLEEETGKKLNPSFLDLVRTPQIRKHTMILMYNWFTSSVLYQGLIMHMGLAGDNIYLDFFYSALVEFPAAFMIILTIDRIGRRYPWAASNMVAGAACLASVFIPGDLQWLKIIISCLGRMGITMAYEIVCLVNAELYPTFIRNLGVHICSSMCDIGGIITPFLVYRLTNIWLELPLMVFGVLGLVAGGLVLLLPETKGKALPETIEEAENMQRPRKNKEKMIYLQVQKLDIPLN
Kindly return satisfied if reported inhibition at 5 min, 20 μM is no lower than 30%; return not satisfied if it is lower.

>>> assigned_category("CCCN[C@H]1CCc2nc(N)sc2C1 [(S)-Pramipexole]")
"not satisfied"
>>> assigned_category("C=C[C@H]1C[N@@]2CC[C@H]1C[C@H]2[C@H](O)c1ccnc2ccc(OC)cc12")
"satisfied"
>>> assigned_category("CN(C)CCc1c[nH]c2ccc(C[C@H]3COC(=O)N3)cc12 [(S)-Zolmitriptan]")
"not satisfied"
>>> assigned_category("CCCCN1CCCC[C@H]1C(=O)Nc1c(C)cccc1C [(S)-Bupivacaine]")
"satisfied"
>>> assigned_category("CN(C)CCC[C@]1(c2ccc(F)cc2)OCc2cc(C#N)ccc21 [(R)-Citalopram]")
"not satisfied"
>>> assigned_category("C#CCN[C@H]1CCc2ccccc21 [(S)-Rasagiline]")
"satisfied"
>>> assigned_category("CCC(CO)NCCNC(CC)CO [(R,R)-Ethambutol]")
"not satisfied"
>>> assigned_category("N[C@@H]1CONC1=O [(R)-Cycloserine]")
"not satisfied"
>>> assigned_category("CC(C)(C)NC[C@@H](O)COc1nsnc1N1CCOCC1 [(R)-Timolol]")
"not satisfied"
>>> assigned_category("CNCC[C@H](Oc1cccc2ccccc12)c1cccs1 [(S)-Duloxetine]")
"satisfied"
>>> assigned_category("CNCC[C@@H](Oc1cccc2ccccc12)c1cccs1 [(R)-Duloxetine]")
"satisfied"
>>> assigned_category("CCCCN1CCCC[C@@H]1C(=O)Nc1c(C)cccc1C [(R)-Bupivacaine]")
"satisfied"
>>> assigned_category("CN(C)CCC[C@@]1(c2ccc(F)cc2)OCc2cc(C#N)ccc21 [(S)-Citalopram]")
"not satisfied"
>>> assigned_category("CC(C)Cc1ccc([C@@H](C)C(=O)O)cc1 [(R)-Ibuprofen]")
"not satisfied"
>>> assigned_category("CC(C)NC[C@@H](O)COc1cccc2ccccc12 [(R)-Propranolol]")
"not satisfied"
>>> assigned_category("COc1ccccc1OCCNC[C@H](O)COc1cccc2[nH]c3ccccc3c12 [(S)-Carvedilol]")
"satisfied"
>>> assigned_category("COc1ccccc1OCCNC[C@@H](O)COc1cccc2[nH]c3ccccc3c12 [(R)-Carvedilol]")
"satisfied"
>>> assigned_category("CCCN[C@@H]1CCc2nc(N)sc2C1 [(R)-Pramipexole]")
"satisfied"
>>> assigned_category("NC[C@H](O)c1ccc(O)c(O)c1 [(R)-Norepinephrine]")
"not satisfied"
>>> assigned_category("Cc1cccc(C)c1OC[C@H](C)N [(S)-Mexiletine]")
"satisfied"
